- assay-procedure: Drug degradation in THF at 254 nM after 2 hrs by LC-MS analysis in presence of NaHCO3 and BnSH
- Type: physicochemical
- test-parameters: THF with NaHCO3 and BnSH; read-out: Drug degradation
measurement-kind: degraded at 2 h, 0.254 µM (%)
The figure you give is taken to be in %; do not add the unit.

Q: # get_value(readout='degraded at 2 h, 0.254 µM', item= `CC(C)(C)OC(=O)N1C[C@@H](CCl)c2c1cc1c3c(cccc23)C(=O)NO1` )
A: 28

* * *

- assay-procedure: Half life in mouse plasma
Examples of compounds with documented half-life follow.

In [3]: df
Out[3]:
                            compound_string  measurement_kind  result
0  CN1Oc2cc3c(c4cccc(c24)C1=O)[C@H](CCl)CN3C(=O)c1cc2cc(NC(=O)c3cc4ccccc4[nH]3)ccc2[nH]1         half-life  > 48 h

Q: Could you share which half-life value was measured for `O=C(Nc1ccc2[nH]c(C(=O)N3C[C@@H](CCl)c4c3cc3c5c(cccc45)C(=O)NO3)cc2c1)c1cc2ccccc2[nH]1` ?
A: > 48 h
